biological target: biotinylated human DLL3 protein expressed as a human IgG1 fusion protein (human) (UniProt Q9NYJ7); assay: Octet BLI; biotinylated huDLL3-IgG1 fusion on streptavidin tips; single 50 nM; conditioned medium
Sequence (Q9NYJ7 other isoform, or with tags, fused parts or gaps): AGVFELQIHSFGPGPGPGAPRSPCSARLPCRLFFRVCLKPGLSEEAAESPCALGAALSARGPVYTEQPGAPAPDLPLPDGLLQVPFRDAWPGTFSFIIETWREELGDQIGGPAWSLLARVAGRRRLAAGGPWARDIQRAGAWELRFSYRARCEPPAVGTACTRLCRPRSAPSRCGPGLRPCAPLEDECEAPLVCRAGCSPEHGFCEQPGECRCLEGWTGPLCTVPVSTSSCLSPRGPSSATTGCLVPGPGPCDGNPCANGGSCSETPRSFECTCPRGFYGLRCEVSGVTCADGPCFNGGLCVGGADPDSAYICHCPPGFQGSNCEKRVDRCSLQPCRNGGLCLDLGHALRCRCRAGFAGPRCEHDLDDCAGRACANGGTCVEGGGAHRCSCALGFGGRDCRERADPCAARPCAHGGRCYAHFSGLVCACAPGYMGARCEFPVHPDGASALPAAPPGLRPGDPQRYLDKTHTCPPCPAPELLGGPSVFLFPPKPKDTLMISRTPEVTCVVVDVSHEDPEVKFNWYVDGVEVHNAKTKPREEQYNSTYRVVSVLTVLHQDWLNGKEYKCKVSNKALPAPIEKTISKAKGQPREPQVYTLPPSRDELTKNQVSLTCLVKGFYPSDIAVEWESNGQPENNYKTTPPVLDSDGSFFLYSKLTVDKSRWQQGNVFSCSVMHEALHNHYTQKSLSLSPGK
attribute.measured: Kd (nM)
Please state the figure in nM; there is no need to write the unit.

Before answering, review these 3 worked examples.
binder: anti-DLL3 trispecific protein 2E011 (protein, part only; not given: CD3 binder and albumin binder, part only) chain, part: EVQLVESGGGLVQPGGSLTLSCVASGSTSSINAIGWYRRAPGKQRELVAGISSDGSSVYADSVKGRFTISRDNAKNSVYLQMNSLRAEDTAVYYCYYFRRVSGSSMRYWGQGTLVTVSSGGGGSGGGSGGGGSGGGSHHHHHH
Kd (nM): 2.4

binder: anti-DLL3 trispecific protein 2D04 (protein, part only; not given: CD3 binder and albumin binder, part only) chain, part: EVQLVESGGGLVQPGGSLTLSCVASGSTSSINAVGWYRRAPGKQRELVAGISSDGSKVYRDSVKGRFTISRDNAKNSVYLQMNSLRAEDTAVYYCYYFRTVQGSSMRYWGQGTLVTVSSGGGGSGGGSGGGGSGGGSHHHHHH
Kd (nM): 6.2

binder: anti-DLL3 trispecific protein 2C04 (protein, part only; not given: anti-CD3 fragment and anti-albumin sdAb, part only) chain, part: EVQLVESGGGLVQPGGSLTLSCVASGSTSSRNAMGWYRRAPGKQRELVAGISSDGSKLYADSVKGRFTISRDNAKNSVYLQMNSLRAEDTAVYYCYYFRTVLGSSMRYWGQGTLVTVSSGGGGSGGGSGGGGSGGGSHHHHHH
Kd (nM): 6.8

// below: Kd requested for another binder
Prompt: Requested field: Kd. Item: anti-DLL3 trispecific protein 4H04 (protein, part only; not given: anti-CD3 fragment and anti-albumin sdAb, part only) chain, part: EVQLVESGGGLVQPGGSLTLSCAASGSSVKFLSMAWYRQAPGKKRELVAGVSADGSTDYIDSVKGRFTISRDNAKNSVYLQMNSLRAEDTAVYYCYAYEWTTRYTYWGQGTLVTVSSGGGGSGGGSGGGGSGGGSHHHHHH
Completion: 6.1
